These data points were gathered from ChEMBL document CHEMBL4177722.

Provide the reported Ki of each item.
Molecular target: Calmodulin-sensitive adenylate cyclase (Bacillus anthracis, UniProt P40136)
Assay: Inactivation of Bacillus anthracis edema factor in presence of CaM incubated for 10 to 240 mins by EnzChek pyrophosphate assay
Give just the numeric value; µM need not be written.

// Ki lookup, compound = `Cc1nc(N)c2ncn(C3CCN(C(=O)c4ccc(S(=O)(=O)F)cc4)CC3)c2n1` , result: 16.5

// Ki lookup, compound = `Nc1ncnc2c1ccn2C1CCN(C(=O)c2ccc(S(=O)(=O)F)cc2)CC1` , result: 0.3

// Ki lookup, compound = `Cc1nc(N)cc(OCCNC(=O)c2ccc(S(=O)(=O)F)cc2)n1` , result: 286

// Ki lookup, compound = `Cc1nc(N)c2cnn(C3CCN(Cc4ccc(S(=O)(=O)F)cc4)CC3)c2n1` , result: 4.6

// Ki lookup, compound = `Nc1cc(OC2CN(C(=O)c3ccc(S(=O)(=O)F)cc3)C2)ccn1` , result: 10.9

// Ki lookup, compound = `Nc1ncnc2c1ncn2CCOC(=O)c1ccc(S(=O)(=O)F)cc1` , result: 25.9

// Ki lookup, compound = `Cc1nc(N)cc(OC2CCN(C(=O)c3ccc(S(=O)(=O)F)cc3)CC2)n1` , result: 27.6

// Ki lookup, compound = `Nc1ncnc2c1ncn2C1CCN(C(=O)c2ccc(S(=O)(=O)F)cc2)CC1` , result: 9.4

// Ki lookup, compound = `Nc1ncnc2c1ncn2[C@@H]1CCCN(C(=O)c2ccc(S(=O)(=O)F)cc2)C1` , result: 96.5

// Ki lookup, compound = `Nc1ncnc2c1ncn2CCCNC(=O)c1ccc(S(=O)(=O)F)cc1` , result: 37.7

// Ki lookup, compound = `Nc1cc(OCCNCc2ccc(S(=O)(=O)F)cc2)ccn1` , result: 49.6

// Ki lookup, compound = `Nc1cc(OCCCNCc2ccc(S(=O)(=O)F)cc2)ccn1` , result: 222

// Ki lookup, compound = `Nc1ncnc2c1cnn2C1CCN(C(=O)c2ccc(S(=O)(=O)F)cc2)CC1` , result: 3.7

// Ki lookup, compound = `Cc1nc(N)c2ncn(C3CCN(Cc4ccc(S(=O)(=O)F)cc4)CC3)c2n1` , result: 14.7

// Ki lookup, compound = `Cc1nc(N)c2ccn(C3CCN(C(=O)c4ccc(S(=O)(=O)F)cc4)CC3)c2n1` , result: 0.7

// Ki lookup, compound = `Cc1cc(OC2CCN(Cc3ccc(S(=O)(=O)F)cc3)CC2)cc(N)n1` , result: 42.2

// Ki lookup, compound = `Nc1cc(O[C@@H]2CCN(C(=O)c3ccc(S(=O)(=O)F)cc3)C2)ccn1` , result: 38.9

// Ki lookup, compound = `Nc1cc(OCCCNC(=O)c2ccc(S(=O)(=O)F)cc2)ccn1` , result: 88.1

====

Provide the reported Ratio of each item.
Target: Calmodulin-sensitive adenylate cyclase (Bacillus anthracis) (UniProt P40136)
Sequence (P40136 whole entry): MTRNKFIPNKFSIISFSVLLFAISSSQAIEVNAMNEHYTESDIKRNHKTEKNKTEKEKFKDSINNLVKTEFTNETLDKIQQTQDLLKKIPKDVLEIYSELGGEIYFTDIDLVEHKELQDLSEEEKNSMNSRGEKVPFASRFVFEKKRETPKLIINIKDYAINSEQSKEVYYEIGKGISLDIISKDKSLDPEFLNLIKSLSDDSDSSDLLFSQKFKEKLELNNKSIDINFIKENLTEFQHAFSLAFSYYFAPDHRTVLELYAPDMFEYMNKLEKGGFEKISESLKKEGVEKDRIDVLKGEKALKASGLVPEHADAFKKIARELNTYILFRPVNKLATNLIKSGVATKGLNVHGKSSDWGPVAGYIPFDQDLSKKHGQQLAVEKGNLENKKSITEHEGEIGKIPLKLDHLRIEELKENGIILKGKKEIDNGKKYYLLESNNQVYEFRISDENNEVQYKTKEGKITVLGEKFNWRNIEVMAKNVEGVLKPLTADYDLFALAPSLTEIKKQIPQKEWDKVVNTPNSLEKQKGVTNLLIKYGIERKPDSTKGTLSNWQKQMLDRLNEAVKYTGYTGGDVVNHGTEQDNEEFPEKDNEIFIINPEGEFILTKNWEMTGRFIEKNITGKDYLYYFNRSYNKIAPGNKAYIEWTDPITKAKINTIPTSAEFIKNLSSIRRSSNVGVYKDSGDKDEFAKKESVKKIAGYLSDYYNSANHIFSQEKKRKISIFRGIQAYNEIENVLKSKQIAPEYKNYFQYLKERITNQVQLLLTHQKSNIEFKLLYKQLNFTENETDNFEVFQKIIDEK
Test: Inactivation of Bacillus anthracis edema factor assessed as Kinact/Ki ratio in presence of CaM incubated for 10 to 240 mins by EnzChek pyrophosphate assay relative to FSBA
Just the number, please, no unit after it.

Tested system Calmodulin-sensitive adenylate cyclase (Bacillus anthracis) (UniProt P40136); Ratio recorded for `Nc1cc(OCCCNC(=O)c2ccc(S(=O)(=O)F)cc2)ccn1` was 0.6

Tested system Calmodulin-sensitive adenylate cyclase (Bacillus anthracis) (UniProt P40136); Ratio recorded for `Cc1cc(OC2CCN(Cc3ccc(S(=O)(=O)F)cc3)CC2)cc(N)n1` was 0.6
